Recorded values, source PubChem BioAssay (Tox21).

- TEST SUMMARY: qHTS assay to test for compound auto fluorescence at 460 nm (blue) in HEK293 cells (AID 720678)
- STUDY CONDITIONS: blue autofluorescence 405/460 nm; series mostly up to 46 µM
The source made the active and inactive calls. The call rests on the fitted dose curve; in most records, active means well fitted curve in the direction sought with a large enough effect in the repeat runs; inconclusive means weak or mixed curves; inactive means flat fitted curve, though single readings scatter.
PARAMETER MEASURED: outcome

Answered cases to consult:
{"COMPOUND": "CC(=O)OCC(=O)[C@@]1(O)[C@H](C)C[C@H]2[C@@H]3C[C@H](F)C4=CC(=O)C=C[C@]4(C)[C@H]3[C@@H](O)C[C@@]21C", "RESULT": "inactive"}
{"COMPOUND": "CC(C(=O)O)c1ccc(N2Cc3ccccc3C2=O)cc1 (configuration not stated)", "RESULT": "inactive"}
{"COMPOUND": "CC(=O)O[C@H]1CC[C@@]2(C)C(=CC[C@@H]3[C@@H]2CC[C@]2(C)C(c4cccnc4)=CC[C@@H]32)C1", "RESULT": "inactive"}
{"COMPOUND": "CN[C@H]1CCc2cc(OC)c(OC)c(OC)c2-c2ccc(OC)c(=O)cc21", "RESULT": "inactive"}
{"COMPOUND": "CC(=O)[C@]1(O)Cc2c(O)c3c(c(O)c2[C@@H](O[C@H]2C[C@H](N)[C@H](O)[C@H](C)O2)C1)C(=O)c1c(O)cccc1C3=O", "RESULT": "inactive"}
{"COMPOUND": "CC(=O)OC[C@H]1O[C@@H](O[C@H]2[C@H](O)[C@@H](OC(=O)c3ccccc3C(=O)O)[C@H](O)O[C@@H]2COC(C)=O)[C@H](O)[C@@H](OC(=O)c2ccccc2C(=O)O)[C@@H]1O", "RESULT": "inactive"}

Next compound, outcome to be filled in.
Data point: "O=C(CCCN1CCC(C(=O)c2ccc(F)cc2)CC1)c1ccc(F)cc1" ; outcome = inactive
